TESTED_TARGET: 5-hydroxytryptamine receptor 2A (Rattus norvegicus)
Sequence (P14842 whole entry): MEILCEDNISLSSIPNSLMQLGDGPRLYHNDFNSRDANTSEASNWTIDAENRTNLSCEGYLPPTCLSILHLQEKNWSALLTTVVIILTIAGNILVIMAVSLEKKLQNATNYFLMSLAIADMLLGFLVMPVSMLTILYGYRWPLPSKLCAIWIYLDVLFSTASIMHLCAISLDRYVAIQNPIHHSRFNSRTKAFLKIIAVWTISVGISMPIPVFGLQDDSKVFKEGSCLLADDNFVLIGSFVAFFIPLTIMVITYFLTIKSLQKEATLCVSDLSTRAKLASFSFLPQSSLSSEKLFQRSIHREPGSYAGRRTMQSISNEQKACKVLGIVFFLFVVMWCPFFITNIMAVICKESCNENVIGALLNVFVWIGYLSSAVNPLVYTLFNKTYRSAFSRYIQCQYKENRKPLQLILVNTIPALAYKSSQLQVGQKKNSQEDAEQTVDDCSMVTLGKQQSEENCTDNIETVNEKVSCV
PROTOCOL: Displacement of [3H]ketanserin from Sprague-Dawley rat brain cortex serotonin 5-HT2A receptor at 0.001 uM after 15 mins by liquid scintillation counting
READOUT_NAME: inhibition (%)
Output spec: scalar in %, unitless text.

Illustrative cases are given below, each with its answer.
**Query** Can you share its inhibition? I mean this compound: `N#C/N=C(\NCCCN1CCN(c2cccc(Cl)c2)CC1)c1ccccn1`
**Result** 95.1

**Query** Reported inhibition, compound `N#C/N=C(\NCCCN1CCN(c2cccc(C(F)(F)F)c2)CC1)c1ccccn1` : ____
**Result** 85.9

**Query** GET /values?readout=inhibition&item= `COc1ccccc1N1CCN(CCCN/C(=N\C#N)c2ccccn2)CC1`
**Result** 95.1

Here's the next entry for you.
**Query** Dear colleague, I am looking for the recorded inhibition of the following compound: `N#C/N=C(\NCCCN1CCN(c2ncccn2)CC1)c1ccccn1`
**Result** 70.4

====

TESTED_TARGET: 5-hydroxytryptamine receptor 2A (Rattus norvegicus)
PROTOCOL: Displacement of [3H]ketanserin from Sprague-Dawley rat brain cortex serotonin 5-HT2A receptor after 15 mins by liquid scintillation counting
CONDITIONS: read-out: Ki
READOUT_NAME: Ki (nM)
Write down the numeric answer in nM and omit the unit.

Below: 4 compounds and their reported Ki.
**Query** Form entry - test system: 5-hydroxytryptamine receptor 2A (Rattus norvegicus); read-out: Ki; compound: `N#CNC(=NCCCN1CCN(c2cccc(Cl)c2)CC1)c1ccccn1`
**Result** 0.000185

**Query** Field: Ki (5-hydroxytryptamine receptor 2A (Rattus norvegicus)). Entry: `N#C/N=C(\NCCCN1CCN(c2ncccn2)CC1)c1ccccn1`
**Result** 0.0161

**Query** What value of Ki on 5-hydroxytryptamine receptor 2A (Rattus norvegicus) does `CCOc1ccccc1N1CCN(CCCN/C(=N\C#N)c2ccccn2)CC1` have?
**Result** 2730

**Query** State its Ki on 5-hydroxytryptamine receptor 2A (Rattus norvegicus): `N#C/N=C(\NCCCN1CCN(c2ccccn2)CC1)c1ccccn1`
**Result** 1.12

// next entry
**Query** # get_value(readout= Ki, system= 5-hydroxytryptamine receptor 2A (Rattus norvegicus)) for `Cc1cccc(N2CCN(CCCN/C(=N\C#N)c3ccccn3)CC2)c1C`
**Result** 0.867

====

Parameter 'readout' = IC50; parameter 'system' = 5-hydroxytryptamine receptor 2A (Rattus norvegicus).
Reply with just the number (in pM).

Some solved entries appear below for comparison.
**Query** // lookup IC50 for `N#C/N=C(\NCCCN1CCN(c2ncccn2)CC1)c1ccccn1`
**Result** 21.7

**Query** Item under review: `N#C/N=C(\NCCCN1CCN(c2cccc(C(F)(F)F)c2)CC1)c1ccccn1` . Reported IC50?
**Result** 1.05

Others:
**Query** // returns reported IC50 for input `COc1ccccc1N1CCN(CCCN/C(=N\C#N)c2ccccn2)CC1`
**Result** 2.12

====

Measured inhibition, listed per entry for reference.
TESTED_TARGET: 5-hydroxytryptamine receptor 2A (Rattus norvegicus) (UniProt P14842)
Sequence (P14842 whole entry): as above
PROTOCOL: Displacement of [3H]ketanserin from Sprague-Dawley rat brain cortex serotonin 5-HT2A receptor at 0.0000001 uM after 15 mins by liquid scintillation counting
Please append the unit to your numeric answer.

See these solved cases before continuing.
**Query** Which inhibition reading was recorded for the compound `N#C/N=C(\NCCCN1CCN(c2cccc(C(F)(F)F)c2)CC1)c1ccccn1` ?
**Result** 34.9%

**Query** Which value of inhibition has been reported for `N#C/N=C(\NCCCN1CCN(c2ncccn2)CC1)c1ccccn1` in the records?
**Result** 24.2%

New cases:
**Query** Fill blank: measured inhibition of the compound `COc1ccccc1N1CCN(CCCN/C(=N\C#N)c2ccccn2)CC1` is ____.
**Result** 21.9%

**Query** Recorded inhibition of `N#C/N=C(\NCCCN1CCN(c2cccc(Cl)c2)CC1)c1ccccn1` , please.
**Result** 45.3%

====

Collected Ki values appear next to each entry.
TESTED_TARGET: Adrenergic receptor alpha-1 (Rattus norvegicus, UniProt P15823+P23944+P43140)
PROTOCOL: Displacement of [3H]prazosin from rat brain cortex adrenergic alpha1 receptor after 30 mins by liquid scintillation counting
Kindly answer with a numeric value in nM, unit omitted.

**Query** Please give the measured Ki for this compound: `N#C/N=C(\NCCCN1CCN(c2ccccn2)CC1)c1ccccn1`
**Result** 130

====

TESTED_TARGET: 5-hydroxytryptamine receptor 1A (Rattus norvegicus, UniProt P19327)
Sequence (P19327 whole entry): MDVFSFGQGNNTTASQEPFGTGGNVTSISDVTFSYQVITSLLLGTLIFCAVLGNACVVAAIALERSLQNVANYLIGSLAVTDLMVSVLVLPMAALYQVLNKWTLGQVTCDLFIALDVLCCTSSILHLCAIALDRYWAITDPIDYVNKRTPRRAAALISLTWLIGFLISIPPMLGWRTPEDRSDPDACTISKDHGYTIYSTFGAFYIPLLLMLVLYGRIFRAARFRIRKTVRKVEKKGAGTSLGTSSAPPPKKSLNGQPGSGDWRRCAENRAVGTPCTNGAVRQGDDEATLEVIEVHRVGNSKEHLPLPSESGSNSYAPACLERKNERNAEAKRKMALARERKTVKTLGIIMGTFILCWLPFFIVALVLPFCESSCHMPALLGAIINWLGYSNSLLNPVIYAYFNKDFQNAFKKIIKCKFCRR
PROTOCOL: Displacement of [3H]-8-OH-DPAT from Sprague-Dawley rat brain cortex serotonin 5-HT1A receptor after 30 mins by liquid scintillation counting
CONDITIONS: read-out: Ki
READOUT_NAME: Ki (nM)
Only the number, expressed in nM, is required.

For orientation, consider the following solved cases.
**Query** # value lookup — system 5-hydroxytryptamine receptor 1A (Rattus norvegicus, UniProt P19327), readout Ki, item `N#C/N=C(\NCCCN1CCN(c2ncccn2)CC1)c1ccccn1`
**Result** 3080

**Query** Return Ki measured with 5-hydroxytryptamine receptor 1A (Rattus norvegicus, UniProt P19327) given this compound: `N#C/N=C(\NCCCN1CCN(c2cccc(C(F)(F)F)c2)CC1)c1ccccn1`
**Result** 1.31

**Query** # returns recorded Ki (system: 5-hydroxytryptamine receptor 1A (Rattus norvegicus, UniProt P19327)) for `N#CNC(=NCCCN1CCN(c2cccc(Cl)c2)CC1)c1ccccn1`
**Result** 6.67

**Query** // map `Cc1cccc(N2CCN(CCCN/C(=N\C#N)c3ccccn3)CC2)c1C` to recorded Ki (system: 5-hydroxytryptamine receptor 1A (Rattus norvegicus, UniProt P19327))
**Result** 30

**Query** For 5-hydroxytryptamine receptor 1A (Rattus norvegicus, UniProt P19327), provide Ki of `CCOc1ccccc1N1CCN(CCCN/C(=N\C#N)c2ccccn2)CC1` please.
**Result** 17.2

**Query** Field: Ki (5-hydroxytryptamine receptor 1A (Rattus norvegicus, UniProt P19327)). Entry: `COc1ccccc1N1CCN(CCCN/C(=N\C#N)c2ccccn2)CC1`
**Result** 4.68

New cases:
**Query** Recorded Ki for `N#C/N=C(\NCCCN1CCN(c2ccccn2)CC1)c1ccccn1` with 5-hydroxytryptamine receptor 1A (Rattus norvegicus, UniProt P19327), please?
**Result** 30.6

**Query** Provide value of Ki for this record tested with 5-hydroxytryptamine receptor 1A (Rattus norvegicus, UniProt P19327): `COc1ccc(N2CCN(CCCN/C(=N\C#N)c3ccccn3)CC2)cc1`
**Result** 0.0842

**Query** What Ki appears in the records for this compound with 5-hydroxytryptamine receptor 1A (Rattus norvegicus, UniProt P19327)? `N#C/N=C(\NCCCN1CCN(c2ccccc2Cl)CC1)c1ccccn1`
**Result** 170

====

TESTED_TARGET: D(1A) dopamine receptor (Rattus norvegicus, UniProt P18901)
Sequence (P18901 whole entry): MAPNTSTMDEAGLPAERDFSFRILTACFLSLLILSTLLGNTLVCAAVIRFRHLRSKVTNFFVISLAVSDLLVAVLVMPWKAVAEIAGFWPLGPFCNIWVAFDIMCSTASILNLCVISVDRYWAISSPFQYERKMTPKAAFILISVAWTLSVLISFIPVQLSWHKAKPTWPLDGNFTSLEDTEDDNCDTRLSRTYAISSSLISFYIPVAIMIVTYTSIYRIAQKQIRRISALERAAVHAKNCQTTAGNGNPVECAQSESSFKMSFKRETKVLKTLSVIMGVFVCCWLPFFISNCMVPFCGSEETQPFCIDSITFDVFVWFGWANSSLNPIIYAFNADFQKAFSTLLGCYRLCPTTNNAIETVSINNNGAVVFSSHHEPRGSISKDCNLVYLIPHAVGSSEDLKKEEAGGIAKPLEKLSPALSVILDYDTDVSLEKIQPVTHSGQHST
PROTOCOL: Displacement of [3H]SCH-23390 from rat corpora striatum dopamine D1 receptor after 15 mins by liquid scintillation counting
CONDITIONS: read-out: Ki
This section presents compounds with their documented Ki values.

Solved entries (count: 3):
**Query** // lookup Ki for `COc1ccc(N2CCN(CCCN/C(=N\C#N)c3ccccn3)CC2)cc1`
**Result** > 10 µM

**Query** Need Ki of `CCOc1ccccc1N1CCN(CCCN/C(=N\C#N)c2ccccn2)CC1` , thanks.
**Result** 0.0524 µM

**Query** // returns reported Ki for input `COc1ccccc1N1CCN(CCCN/C(=N\C#N)c2ccccn2)CC1`
**Result** > 10 µM

---
**Query** Could you tell me which Ki is on file for `N#C/N=C(\NCCCN1CCN(c2ncccn2)CC1)c1ccccn1` ?
**Result** > 10 µM

**Query** Find the recorded Ki belonging to `N#C/N=C(\NCCCN1CCN(c2ccccn2)CC1)c1ccccn1` and report it.
**Result** > 10 µM

**Query** Which measured Ki value corresponds to `N#C/N=C(\NCCCN1CCN(c2cccc(C(F)(F)F)c2)CC1)c1ccccn1` ?
**Result** > 10 µM

**Query** For `N#CNC(=NCCCN1CCN(c2cccc(Cl)c2)CC1)c1ccccn1` , what is its reported Ki?
**Result** > 10 µM

**Query** Name the reported Ki value associated with the compound `Cc1cccc(N2CCN(CCCN/C(=N\C#N)c3ccccn3)CC2)c1C`
**Result** > 10 µM

====

TESTED_TARGET: UniProt P08909
Sequence (P08909 whole entry): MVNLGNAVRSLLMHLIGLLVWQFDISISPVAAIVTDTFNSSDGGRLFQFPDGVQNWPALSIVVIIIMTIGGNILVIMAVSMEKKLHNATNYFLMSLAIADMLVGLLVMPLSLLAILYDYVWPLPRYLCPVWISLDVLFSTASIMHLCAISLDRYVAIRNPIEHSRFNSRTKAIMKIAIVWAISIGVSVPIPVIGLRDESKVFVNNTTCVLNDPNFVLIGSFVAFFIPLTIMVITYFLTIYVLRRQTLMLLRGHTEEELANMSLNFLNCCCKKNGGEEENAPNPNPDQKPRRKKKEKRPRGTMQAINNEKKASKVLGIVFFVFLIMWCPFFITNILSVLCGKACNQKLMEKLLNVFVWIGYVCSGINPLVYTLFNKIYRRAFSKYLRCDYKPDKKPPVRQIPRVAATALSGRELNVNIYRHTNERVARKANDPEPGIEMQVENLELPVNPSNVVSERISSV
PROTOCOL: Displacement of [3H]mesulergine from Sprague-Dawley rat brain cortex serotonin 5-HT2C receptor after 15 mins by liquid scintillation counting in presence of 5-HT2A blocker, spiperone
CONDITIONS: read-out: Ki
Overview of reported pKi across a group of compounds:
// field semantics: pKi = negative decimal log of concentration (mol/L)

Recorded pKi, per entry:
**Query** Looking for the measured pKi of `Cc1cccc(N2CCN(CCCN/C(=N\C#N)c3ccccn3)CC2)c1C` , can you help?
**Result** 7.53

**Query** Query: pKi; subject: `CCOCCN1CCN(CCCN/C(=N\C#N)c2ccccn2)CC1`
**Result** 6.22

**Query** May I ask what pKi has been recorded for `N#C/N=C(\NCCCN1CCN(c2ncccn2)CC1)c1ccccn1` ?
**Result** 7.65

**Query** For `N#CNC(=NCCCN1CCN(c2cccc(Cl)c2)CC1)c1ccccn1` , what is its reported pKi?
**Result** 8.48

**Query** Which value of pKi has been reported for `COCCN1CCN(CCCN/C(=N\C#N)c2ccccn2)CC1` in the records?
**Result** 6.41

**Query** Report pKi for `N#C/N=C(\NCCCN1CCN(c2cccc(C(F)(F)F)c2)CC1)c1ccccn1` please.
**Result** 8.74

**Query** Look at this compound and give its reported pKi. `COc1ccccc1N1CCN(CCCN/C(=N\C#N)c2ccccn2)CC1`
**Result** 8.79

Consider the record given below.
**Query** If you can, please state the reported pKi value of `N#C/N=C(\NCCCN1CCN(c2ccccc2C#N)CC1)c1ccccn1` .
**Result** 7.54
